- Tested System: GBA2 (Homo sapiens, UniProt Q9HCG7)
- Construct: expressed in transfected cells; host or cells: HEK293T (GBA/GBA2 KO background for the fluorogenic assay; endogenous-GBA background with GBA2 and GBA3 overexpressed for ABPP and intact-cell assays)
- Assay Overview: Fluorogenic substrate enzymatic assay, lysate of GBA/GBA2 KO HEK293T cells overexpressing GBA2
- Type: biochemical
- Assay Setup: IC50 ratio, in vitro, 30 min
Where (Ratio) GBA2/GBA equals or exceeds 20, the correct label is Met; where it does not, the label is Not met.

Solved entries:
[[record]]
molecule = "CN1/C(=C/C=C/C=C/C2=[N+](CCCCCC(=O)NCc3cn(C[C@@H]4[C@@H](O)[C@H](O)[C@@H](O)[C@@H]5O[C@H]45)nn3)c3ccccc3C2(C)C)C(C)(C)c2ccccc21 [ABP 9, reference compound]"
cat = "Met"

[[record]]
molecule = "O=C(CCCCC1SCC2NC(=O)NC21)NCc1cn(CCCCCCCCN2C3CC(O)C(O)C(O)C32)nn1 (centres unmarked) [ABP 7]"
cat = "Met"

[[record]]
molecule = "OC[C@@H]1[C@@H](O)[C@H](O)[C@@H](O)[C@@H]2N[C@H]12 [compound 4, cyclophellitol aziridine, reference compound]"
cat = "Not met"

[[record]]
molecule = "O[C@@H]1[C@@H](O)[C@H](O)C[C@H]2N[C@@H]12 [compound 2, β‐D‐xylo‐Cyclophellitol aziridine]"
cat = "Met"

[[record]]
molecule = "[N-]=[N+]=NCCCCCCCCN1[C@H]2[C@H](O)[C@@H](O)[C@H](O)C[C@H]21 (some centres unmarked) [compound 5]"
cat = "Met"

[[record]]
molecule = "CN1/C(=C/C=C/C=C/C2=[N+](CCCCCC(=O)NCc3cn(CCCCCCCCN4[C@@H]5[C@H](CO)[C@@H](O)[C@H](O)[C@@H](O)[C@@H]54)nn3)c3ccccc3C2(C)C)C(C)(C)c2ccccc21 (some centres unmarked) [ABP 10, reference compound]"
cat = "Not met"

[[record]]
molecule = "OC[C@@H]1[C@@H](O)[C@H](O)[C@@H](O)[C@@H]2O[C@H]12 [compound 3, cyclophellitol]"
cat = "Not met"

[[record]]
molecule = "CN1/C(=C/C=C/C=C/C2=[N+](CCCCCC(=O)NCc3cn(CCCCCCCCN4[C@H]5[C@H](O)[C@@H](O)[C@H](O)C[C@H]54)nn3)c3ccccc3C2(C)C)C(C)(C)c2ccccc21 (some centres unmarked) [ABP 6]"
cat = "Met"


Below: the item to evaluate.
Req: Say whether CC1=CC(C)=[N+]2C1=C(CCCCc1cn(CCCCCCCCN3[C@H]4[C@H](O)[C@@H](O)[C@H](O)C[C@H]43)nn1)c1c(C)cc(C)n1[B-]2(F)F (some centres unmarked) [ABP 8] shows (Ratio) GBA2/GBA of 20 or more.
Resp: Met

---

- Tested System: GBA2 (Danio rerio, UniProt E7F5W0)
- Sequence (E7F5W0 entry or part of it): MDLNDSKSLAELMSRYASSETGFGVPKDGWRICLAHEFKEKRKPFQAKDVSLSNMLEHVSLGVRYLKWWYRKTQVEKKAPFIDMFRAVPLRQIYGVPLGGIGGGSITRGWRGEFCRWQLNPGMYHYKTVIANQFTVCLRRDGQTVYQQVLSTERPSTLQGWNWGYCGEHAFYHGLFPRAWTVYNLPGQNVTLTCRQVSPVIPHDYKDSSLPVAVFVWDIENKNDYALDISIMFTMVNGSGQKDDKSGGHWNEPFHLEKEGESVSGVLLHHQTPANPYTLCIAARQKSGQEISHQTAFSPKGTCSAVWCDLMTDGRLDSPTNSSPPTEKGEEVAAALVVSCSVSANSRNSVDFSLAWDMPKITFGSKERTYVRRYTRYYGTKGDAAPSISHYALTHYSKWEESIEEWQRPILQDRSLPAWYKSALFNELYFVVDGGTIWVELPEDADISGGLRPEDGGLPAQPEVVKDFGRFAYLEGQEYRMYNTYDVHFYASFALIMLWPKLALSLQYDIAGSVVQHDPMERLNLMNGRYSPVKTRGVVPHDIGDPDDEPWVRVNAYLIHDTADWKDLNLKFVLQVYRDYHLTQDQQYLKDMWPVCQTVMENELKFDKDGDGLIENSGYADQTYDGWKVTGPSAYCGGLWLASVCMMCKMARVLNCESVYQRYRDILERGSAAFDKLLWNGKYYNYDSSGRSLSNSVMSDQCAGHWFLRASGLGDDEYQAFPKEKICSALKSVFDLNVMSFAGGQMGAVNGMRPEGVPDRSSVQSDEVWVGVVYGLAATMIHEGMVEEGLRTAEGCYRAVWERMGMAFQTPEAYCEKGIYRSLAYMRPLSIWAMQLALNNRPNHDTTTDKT
- Assay Overview: In vivo inhibition in zebrafish larvae, read out by cABPP with ABP 10, GBA2
- Set-up: species or system zebrafish (Danio rerio)
- Assay Setup: read-out: Zebrafish larvae IC50 GBA2; larvae exposed to 5 dpf, inhibitor in the medium, cABPP quantification
Reported Metric: IC50 (µM)
Give the value in µM but do not write µM after it.

Req: Tell me reported IC50 for O[C@@H]1[C@@H](O)[C@H](O)C[C@H]2N[C@@H]12 [compound 2, β‐D‐xylo‐Cyclophellitol aziridine] , tested with GBA2 (Danio rerio, UniProt E7F5W0).
Resp: 150

---

- Tested System: rhGBA (recombinant human GBA, Imiglucerase) (Homo sapiens, UniProt P04062, R534H)
- Construct: purchased Sanofi Genzyme (Cambridge, MA, USA)
- Sequence (P04062 40-536 R534H): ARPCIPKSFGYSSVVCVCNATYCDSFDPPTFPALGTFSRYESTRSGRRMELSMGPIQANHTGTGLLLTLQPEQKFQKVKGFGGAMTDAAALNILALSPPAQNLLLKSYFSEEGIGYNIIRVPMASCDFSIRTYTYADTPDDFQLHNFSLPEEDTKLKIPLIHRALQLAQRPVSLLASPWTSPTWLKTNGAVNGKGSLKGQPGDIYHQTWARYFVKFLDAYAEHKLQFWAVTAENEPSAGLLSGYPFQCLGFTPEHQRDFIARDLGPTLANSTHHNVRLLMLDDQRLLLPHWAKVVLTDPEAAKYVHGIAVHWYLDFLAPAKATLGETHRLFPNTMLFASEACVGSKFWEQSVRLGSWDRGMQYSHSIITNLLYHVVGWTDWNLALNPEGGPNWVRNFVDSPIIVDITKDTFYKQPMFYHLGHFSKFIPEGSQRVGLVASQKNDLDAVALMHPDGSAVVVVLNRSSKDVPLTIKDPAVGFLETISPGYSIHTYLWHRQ
- Assay Overview: Fluorogenic substrate (4-MU-β-D-glucoside) enzymatic assay, rhGBA
- Format: biochemical
- Assay Setup: enzymatic assay performed for 3 h, n=3; read-out: In vitro apparent IC50 rhGBA, 3 h
Reported Metric: IC50 (nM)
Give the value in nM but do not write nM after it.

Worked set:
[[record]]
compound = "O[C@H]1[C@H](O)[C@@H](O)[C@@H]2O[C@@H]2[C@@H]1O [compound 13, Conduritol B‐epoxide, reference compound]"
reported_metric = "IC50"
quantitative_readout = 2630

[[record]]
compound = "O[C@@H]1[C@@H](O)[C@H](O)C[C@H]2N[C@@H]12"
reported_metric = "IC50"
quantitative_readout = 240


# context switch: different compound, same IC50
Req: Value lookup for IC50; key = O[C@@H]1[C@@H](O)[C@H](O)C[C@H]2O[C@@H]12
Resp: 450

---

- Tested System: GBA2 (Homo sapiens)
- Construct: expressed in transfected cells; host or cells: HEK293T (GBA/GBA2 KO background for the fluorogenic assay; endogenous-GBA background with GBA2 and GBA3 overexpressed for ABPP and intact-cell assays)
- Sequence (Q9HCG7 1-927): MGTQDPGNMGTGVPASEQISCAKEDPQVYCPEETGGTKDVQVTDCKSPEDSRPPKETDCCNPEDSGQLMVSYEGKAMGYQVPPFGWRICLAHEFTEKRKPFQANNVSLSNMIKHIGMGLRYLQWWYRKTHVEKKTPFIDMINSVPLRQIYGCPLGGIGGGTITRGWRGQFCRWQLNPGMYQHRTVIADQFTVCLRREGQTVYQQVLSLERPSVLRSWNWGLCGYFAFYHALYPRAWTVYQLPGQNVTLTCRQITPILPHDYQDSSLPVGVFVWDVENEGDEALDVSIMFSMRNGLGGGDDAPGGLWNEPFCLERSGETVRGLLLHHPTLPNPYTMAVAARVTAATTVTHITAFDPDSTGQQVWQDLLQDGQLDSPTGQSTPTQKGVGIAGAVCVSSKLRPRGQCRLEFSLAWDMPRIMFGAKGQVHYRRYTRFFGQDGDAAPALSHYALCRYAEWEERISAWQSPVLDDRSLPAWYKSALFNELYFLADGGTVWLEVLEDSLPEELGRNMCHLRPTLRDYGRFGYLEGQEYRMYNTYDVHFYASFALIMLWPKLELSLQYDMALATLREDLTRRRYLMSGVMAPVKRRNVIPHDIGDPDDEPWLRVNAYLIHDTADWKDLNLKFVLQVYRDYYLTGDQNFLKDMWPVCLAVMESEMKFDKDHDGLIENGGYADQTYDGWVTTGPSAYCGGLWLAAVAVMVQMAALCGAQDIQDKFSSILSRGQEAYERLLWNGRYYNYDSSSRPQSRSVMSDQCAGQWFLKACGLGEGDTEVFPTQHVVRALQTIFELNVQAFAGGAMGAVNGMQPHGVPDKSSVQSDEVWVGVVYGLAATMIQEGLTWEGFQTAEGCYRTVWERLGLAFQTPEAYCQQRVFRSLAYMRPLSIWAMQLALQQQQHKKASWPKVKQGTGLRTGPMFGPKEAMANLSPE
- Assay Overview: Fluorogenic substrate enzymatic assay, lysate of GBA/GBA2 KO HEK293T cells overexpressing GBA2
- Type: biochemical
- Assay Setup: incubation time 30 min; enzymatic assay; ±SD, n=3; read-out: In vitro apparent IC50 GBA2
# pIC50 listing for each entry below
Lab note — pIC50 values are minus log10 of concentrations in M.

[[record]]
molecule = "O[C@@H]1[C@@H](O)[C@H](O)C[C@H]2N[C@@H]12 [compound 2, β‐D‐xylo‐Cyclophellitol aziridine]"
tested_system = "GBA2 (Homo sapiens)"
reported_metric = "pIC50"
quantitative_readout = 4.50

[[record]]
molecule = "[N-]=[N+]=NCCCCCCCCN1[C@H]2[C@H](O)[C@@H](O)[C@H](O)C[C@H]21 (some centres unmarked) [compound 5]"
tested_system = "GBA2 (Homo sapiens)"
reported_metric = "pIC50"
quantitative_readout = 5.20

[[record]]
molecule = "O=C(CCCCC1SCC2NC(=O)NC21)NCc1cn(CCCCCCCCN2C3CC(O)C(O)C(O)C32)nn1 (centres unmarked) [ABP 7]"
tested_system = "GBA2 (Homo sapiens)"
reported_metric = "pIC50"
quantitative_readout = 4.32

[[record]]
molecule = "CN1/C(=C/C=C/C=C/C2=[N+](CCCCCC(=O)NCc3cn(CCCCCCCCN4[C@@H]5[C@H](CO)[C@@H](O)[C@H](O)[C@@H](O)[C@@H]54)nn3)c3ccccc3C2(C)C)C(C)(C)c2ccccc21 (some centres unmarked) [ABP 10, reference compound]"
tested_system = "GBA2 (Homo sapiens)"
reported_metric = "pIC50"
quantitative_readout = 7.67


Req: Value lookup for pIC50; key = O[C@@H]1[C@@H](O)[C@H](O)C[C@@H]2N[C@H]12 [compound 12]
Resp: 4.25

Req: Same lookup for OC[C@@H]1[C@@H](O)[C@H](O)[C@@H](O)[C@@H]2O[C@H]12 [compound 3, cyclophellitol] , please.
Resp: 6.83

Req: Same lookup for OC[C@@H]1[C@@H](O)[C@H](O)[C@@H](O)[C@@H]2N[C@H]12 [compound 4, cyclophellitol aziridine, reference compound] , please.
Resp: 6.55

Req: Same lookup for CN1/C(=C/C=C/C=C/C2=[N+](CCCCCC(=O)NCc3cn(CCCCCCCCN4[C@H]5[C@H](O)[C@@H](O)[C@H](O)C[C@H]54)nn3)c3ccccc3C2(C)C)C(C)(C)c2ccccc21 (some centres unmarked) [ABP 6] , please.
Resp: 6.26

Req: Same lookup for CC1=CC(C)=[N+]2C1=C(CCCCc1cn(CCCCCCCCN3[C@H]4[C@H](O)[C@@H](O)[C@H](O)C[C@H]43)nn1)c1c(C)cc(C)n1[B-]2(F)F (some centres unmarked) [ABP 8] , please.
Resp: 7.21
